SYSTEM UNDER TEST: integrin alpha5beta1 (Homo sapiens, UniProt P05556+P08648)
Construct: The integrin alpha5beta1 extracellular domain Fc-fusion was expressed and purified; made in house
TEST SUMMARY: Alpha5beta1-Fibronectin binding assay (competitive ELISA)
ASSAY CONDITIONS: method of section 1.1; read-out: Group (binding activities to integrin alpha5beta1)
Reported IC50 by item:
METRIC: IC50

O=C(CO[C@@H]1C[C@@H](CNc2ccccn2)N(C(=O)OCc2ccccc2)C1)NC[C@H](NC(=O)c1ccccc1[N+](=O)[O-])C(=O)O    < 10 nM
O=C(CO[C@@H]1C[C@@H](CNc2ccccn2)N(C(=O)OCc2ccccc2)C1)NC[C@H](NC(=O)c1ccccc1Cl)C(=O)O    < 10 nM
O=C(O)C[C@H](Cc1ccccc1)NC(=O)CO[C@@H]1C[C@@H](CNc2ccccn2)N(C(=O)OCc2ccccc2)C1    > 500 nM

* * *

SYSTEM UNDER TEST: integrin alphavbeta5 (Homo sapiens, UniProt P06756+P18084)
Construct: purchased Chemicon (Chemicon Europe, Germany)
TEST SUMMARY: Vitronectin binding assay, alphavbeta5 (competitive ELISA)
ASSAY CONDITIONS: inhibition of integrin binding to vitronectin
METRIC: IC50 (nM)

Cc1cc(C)c(S(=O)(=O)N[C@@H](CNC(=O)CO[C@@H]2C[C@@H](CNc3ccccn3)N(C(=O)OCc3ccccc3)C2)C(=O)O)c(C)c1 [Compound 5]    230

* * *

SYSTEM UNDER TEST: integrin alpha5beta1 (Homo sapiens, UniProt P05556+P08648)
Construct: The integrin alpha5beta1 extracellular domain Fc-fusion was expressed and purified; made in house
TEST SUMMARY: Alpha5beta1-Fibronectin binding assay (competitive ELISA)
ASSAY CONDITIONS: method of section 1.1; read-out: Group (binding activities to integrin alpha5beta1)
Reported IC50 by item:
METRIC: IC50

O=C(CO[C@@H]1C[C@@H](CNc2ccccn2)N(C(=O)OCc2ccccc2)C1)NC[C@H](NC(=O)C1(c2ccccc2)CC1)C(=O)O [Compound 106]    0.01 to 0.5 µM
Cc1cc(C)c(S(=O)(=O)N[C@@H](CNC(=O)CO[C@@H]2C[C@@H](CNc3ccccn3)N(C(=O)C(F)(F)C(F)(F)C(F)(F)C(F)(F)C(F)(F)C(F)(F)C(F)(F)F)C2)C(=O)O)c(C)c1 [Compound 63]    > 0.5 µM
Cc1ccc(CNC(=O)N2C[C@H](OCC(=O)NC[C@H](NS(=O)(=O)c3c(C)cc(C)cc3C)C(=O)O)C[C@H]2CNc2ccccn2)cc1 [Compound 25]    0.01 to 0.5 µM

* * *

SYSTEM UNDER TEST: integrin alphaIIbbeta3 (Homo sapiens, UniProt P05106+P08514)
Construct: purchased Kordia (Kordia Life Science, Leiden, Netherlands)
TEST SUMMARY: AlphaIIbbeta3-Fibrinogen binding assay (competitive ELISA)
ASSAY CONDITIONS: inhibition of integrin binding to fibrinogen; read-out: IC50 alphabIIbbeta3 in nM
Reported IC50 by item:
METRIC: IC50

Cc1cc(C)c(C(=O)N[C@@H](CNC(=O)CO[C@@H]2C[C@@H](CNc3ccccn3)N(C(=O)OCc3ccccc3)C2)C(=O)O)c(C)c1 [Compound 71]    > 50000 nM
Cc1cc(C)c(S(=O)(=O)N[C@@H](CNC(=O)CO[C@@H]2C[C@@H](CNc3ccccn3)N(C(=O)OCc3ccccc3)C2)C(=O)O)c(C)c1 [Compound 5]    9000 nM
